Reference for the values: ChEMBL document CHEMBL1150089

Task for the reader: assign each of the following compounds its reported IC50.
test system: A549; experiment: Cytotoxicity against human A549 cells after 3 days; format: functional, cell-based; settings: A549, 72 h
Numbers only, in nM.

The examples below pair each entry with its known result.
{"columns": ["structure_smiles_string", "assay_readout", "obs_value"],
 "data": [
  ["CC1=C(CC[C@@H]2[C@H](C)CC[C@@H]3OC(C)(C)C(=O)CC[C@]32C)[C@@]2(C)CC[C@@H](O)C(C)(C)[C@@H]2CC1=O", "IC50", 20],
  ["CC(C)C(=O)CC[C@@]1(C)[C@H]2CC[C@H](C)[C@]1(CC[C@@]1(C)[C@@H](C)CC[C@@H]3OC(C)(C)[C@]4(O)CC[C@@]31O4)O2", "IC50", 20000]
]}

Okay, next one:
Problem: So what IC50 did "CC1=C(CC[C@@H]2[C@@]3(CC[C@@H]4OC(C)(C)C(=O)CC[C@]42C)CO3)[C@@]2(C)CCC(=O)C(C)(C)C2=C(O)C1=O" get with A549?
Result: 200

---

system: P388; test: Cytotoxicity against mouse P388 cells after 3 days; type: functional, cell-based; conditions: P388, 72 h
assay_readout: IC50 (µM)
Answers are plain numbers, in µM.

The examples below pair each entry with its known result.
{"columns": ["compound", "units_text", "obs_value"],
 "data": [
  ["CC1=C(CC[C@@H]2[C@H](C)CC[C@@H]3OC(C)(C)C(=O)CC[C@]32C)[C@@]2(C)CC[C@@H](O)C(C)(C)[C@@H]2CC1=O [SODWANONE H]", "µM", 10.5],
  ["CC(C)C(=O)CC[C@@]1(C)[C@H]2CC[C@H](C)[C@]1(CC[C@@]1(C)[C@@H](C)CC[C@@H]3OC(C)(C)[C@]4(O)CC[C@@]31O4)O2 [SODWANONE I]", "µM", 20]
]}

Okay, next one:
Problem: Which measured IC50 value corresponds to CC1=C(CC[C@@H]2[C@@]3(CC[C@@H]4OC(C)(C)C(=O)CC[C@]42C)CO3)[C@@]2(C)CCC(=O)C(C)(C)C2=C(O)C1=O [SODWANONE G] ?
Result: 2
